experimental_details: Half life in mouse liver microsomes
Type: ADME, Microsome
measure_name: log10(t1/2) (log10 of the value in min)

[
  {
    "smiles_structure": "CC1=CC[C@@]2(C[C@@H]1O)[C@@H](C(=O)O)CC[C@H]2C1CCCCC1",
    "log10(t1/2)": 0.89
  },
  {
    "smiles_structure": "CC1=CC[C@@]2([C@H](O)C1)[C@@H](C(=O)O)CC[C@H]2C1CCCCC1",
    "log10(t1/2)": 1.26
  },
  {
    "smiles_structure": "CC1=CC[C@@]2(C[C@@H]1O)[C@@H](C(=O)O)CC[C@H]2C(C)C",
    "log10(t1/2)": 1.90
  },
  {
    "smiles_structure": "CC1=CC[C@@]2(C=C1)[C@@H](C(=O)O)CC[C@H]2C1CCCCC1",
    "log10(t1/2)": 1.21
  },
  {
    "smiles_structure": "CC1=CC[C@@]2(CC1=O)[C@@H](C(=O)O)CC[C@H]2C(C)C",
    "log10(t1/2)": 2.13
  }
]

----------
assayed_system: 11-beta-hydroxysteroid dehydrogenase 1 (Homo sapiens, UniProt P28845, C272S)
Sequence (P28845 whole entry C272S): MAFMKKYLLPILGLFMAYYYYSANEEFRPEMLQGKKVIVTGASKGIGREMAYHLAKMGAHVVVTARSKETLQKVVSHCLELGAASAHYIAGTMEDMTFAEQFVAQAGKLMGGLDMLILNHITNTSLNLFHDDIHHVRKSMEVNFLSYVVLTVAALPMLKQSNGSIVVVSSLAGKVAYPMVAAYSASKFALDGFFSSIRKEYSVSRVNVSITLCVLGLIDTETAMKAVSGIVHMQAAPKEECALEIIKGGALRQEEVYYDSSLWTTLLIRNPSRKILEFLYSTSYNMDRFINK
experimental_details: Inhibition of N-terminal MKHQHQHQHQHQHQQPL-tagged 11beta-HSD1 C272S mutant (unknown origin) expressed in Escherichia coli BL21 (DE3) using cortisol as substrate measured for 1 hr in presence of NADPH by fluorescence assay
Examples of molecules with documented log10 of IC50 follow.
measure_name: log10 of IC50 (log10 of the value in µM)

[
  {
    "smiles_structure": "CC1=CC[C@@]2(C[C@@H]1O)[C@@H](C(=O)O)CC[C@H]2C1CCCCC1",
    "assay_value": 0.13
  },
  {
    "smiles_structure": "CC1=CC[C@@]2(C[C@H]1O)[C@@H](C(C)C)CC[C@H]2C(=O)O",
    "assay_value": 1.90
  },
  {
    "smiles_structure": "C=C1CC[C@@]2(C[C@@H]1OC(C)=O)[C@@H](C(=O)O)CC[C@H]2C(C)C",
    "assay_value": 1.85
  },
  {
    "smiles_structure": "C=C1CC[C@@]2(C[C@@H]1O)[C@@H](C(=O)O)CC[C@H]2C(C)C",
    "assay_value": 1.58
  },
  {
    "smiles_structure": "CC1=CC[C@@]2(C=C1)[C@@H](C(=O)O)CC[C@H]2C1CCCCC1",
    "assay_value": 0.34
  },
  {
    "smiles_structure": "CC1=CC[C@@]2([C@H](O)C1)[C@@H](C(=O)O)CC[C@H]2C(C)C",
    "assay_value": 1.74
  },
  {
    "smiles_structure": "C=C1CC[C@]2(C[C@@H]1O)[C@H](C)CC[C@@H]2C(=O)O",
    "assay_value": 2.21
  },
  {
    "smiles_structure": "CC1=CC[C@@]2([C@H](O)C1)[C@@H](C(=O)O)CC[C@H]2C1CCCCC1",
    "assay_value": 1.43
  },
  {
    "smiles_structure": "C[C@]1(O)CC[C@@]2(C[C@@H]1O)[C@@H](C(=O)O)CC[C@H]2C1CCCCC1",
    "assay_value": 2.58
  },
  {
    "smiles_structure": "CC(=O)O[C@H]1C[C@]2(CC=C1C)[C@@H](C(=O)O)CC[C@H]2C(C)C",
    "assay_value": 2.25
  },
  {
    "smiles_structure": "CC1=CC[C@@]2(CC1=O)[C@@H](C(=O)O)CC[C@H]2C(C)C",
    "assay_value": 1.63
  },
  {
    "smiles_structure": "CC1=CC[C@@]2(C[C@@H]1O)[C@@H](C(=O)O)CC[C@H]2C(C)C",
    "assay_value": 0.61
  }
]
